Target: PDGFRβ kinase, purified cytoplasmic domain PDGFR-β protein (Homo sapiens (Human), UniProt P09619)
Sequence (P09619 554-1106): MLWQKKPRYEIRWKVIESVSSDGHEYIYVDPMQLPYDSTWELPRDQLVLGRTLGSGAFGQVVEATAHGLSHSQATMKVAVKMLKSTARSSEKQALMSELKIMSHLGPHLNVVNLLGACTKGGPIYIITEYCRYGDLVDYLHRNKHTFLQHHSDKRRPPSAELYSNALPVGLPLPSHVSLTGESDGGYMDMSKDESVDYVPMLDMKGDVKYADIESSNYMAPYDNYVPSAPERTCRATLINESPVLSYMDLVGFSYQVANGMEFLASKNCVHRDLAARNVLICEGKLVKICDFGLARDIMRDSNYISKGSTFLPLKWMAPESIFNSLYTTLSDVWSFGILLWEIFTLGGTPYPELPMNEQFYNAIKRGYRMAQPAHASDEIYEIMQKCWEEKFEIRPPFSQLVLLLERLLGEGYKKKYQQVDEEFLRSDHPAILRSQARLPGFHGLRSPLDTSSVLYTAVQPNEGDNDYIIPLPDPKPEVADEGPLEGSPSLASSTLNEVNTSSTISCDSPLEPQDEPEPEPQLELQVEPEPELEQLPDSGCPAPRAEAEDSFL
property label: IC50 (nM)

[
  {
    "entry smiles": "CCCCNC(=O)c1cccc(N2CCc3nc(N)ncc3C2)c1",
    "relation symbol": ">",
    "reported": 10000
  },
  {
    "entry smiles": "CC(C)c1cccc(NC(=O)c2cccc(N3CCc4nc(N)ncc4C3)c2)c1",
    "relation symbol": "=",
    "reported": 21
  },
  {
    "entry smiles": "Nc1ncc2c(n1)CCN(c1cccc(C(=O)NC3CCCC3)c1)C2",
    "relation symbol": ">",
    "reported": 10000
  },
  {
    "entry smiles": "CN1CCC(Oc2ccc(NC(=O)c3cccc(N4CCc5nc(N)ncc5C4)c3)cc2)CC1",
    "relation symbol": ">",
    "reported": 1000
  },
  {
    "entry smiles": "COc1cccc(NC(=O)c2cccc(N3CCc4nc(N)ncc4C3)c2)c1",
    "relation symbol": "=",
    "reported": 1240
  },
  {
    "entry smiles": "CC(C)(C)CCNC(=O)c1cccc(N2CCc3nc(N)ncc3C2)c1",
    "relation symbol": "=",
    "reported": 164
  },
  {
    "entry smiles": "Nc1ncc2c(n1)CCN(c1cccc(C(=O)Nc3cccc(C(F)(F)F)c3)c1)C2",
    "relation symbol": "=",
    "reported": 26
  },
  {
    "entry smiles": "Cc1cccc(NC(=O)c2cccc(N3CCc4nc(N)ncc4C3)n2)c1",
    "relation symbol": ">",
    "reported": 10000
  },
  {
    "entry smiles": "CCN(CC)C(=O)c1cccc(N2CCc3nc(N)ncc3C2)c1",
    "relation symbol": ">",
    "reported": 1000
  },
  {
    "entry smiles": "Cc1ccc(NC(=O)Nc2ccc(N3CCc4ccncc4C3)cc2)cc1",
    "relation symbol": ">",
    "reported": 1000
  },
  {
    "entry smiles": "O=C(Nc1ccc(N2CCc3ccncc3C2)cc1)c1cccc(C(F)(F)F)c1",
    "relation symbol": ">",
    "reported": 10000
  },
  {
    "entry smiles": "CCc1ccc(NC(=O)c2cccc(N3CCc4nc(N)ncc4C3)c2)cc1",
    "relation symbol": "=",
    "reported": 134
  },
  {
    "entry smiles": "CC(C)c1ccc(NC(=O)c2cccc(N3CCc4nc(N)ncc4C3)c2)cc1",
    "relation symbol": "=",
    "reported": 24
  },
  {
    "entry smiles": "CCc1cccc(NC(=O)c2cccc(N3CCc4nc(N)ncc4C3)c2)c1",
    "relation symbol": "=",
    "reported": 52
  },
  {
    "entry smiles": "O=C(Nc1ccccc1)Nc1ccc(N2CCc3ccncc3C2)cc1",
    "relation symbol": ">",
    "reported": 10000
  },
  {
    "entry smiles": "CCCc1ccc(NC(=O)c2cccc(N3CCc4nc(N)ncc4C3)c2)cc1",
    "relation symbol": "=",
    "reported": 32
  }
]
